# reported viability, T/C; entries follow
# System: 282377-053-R-J1-PDC complex spheroids, viability
# measurement.protocol: Anticancer human tumor 282377-053-R-J1-PDC patient-derived colon adenocarcinoma cell line growth inhibition [GQUAD]
# run.parameters: second compound 3.16 µM; first compound 3.16 µM; active compounds read low
observed.property: viability, T/C (%)

compound="CC1COCCN1c1cc(-c2ccnn2C)c2ccnc(-c3ccn[nH]3)c2n1 (stereo not drawn) + Cc1cnc(CNC(=O)c2c(=O)c3ccc(N4CCCN(C)CC4)nc3n3c2sc2ccccc23)cn1" numeric_readout=21.1
compound="O=C(NO)c1cnc(N2CCN(S(=O)(=O)c3ccc4ccccc4c3)CC2)nc1 + Cc1cnc(CNC(=O)c2c(=O)c3ccc(N4CCCN(C)CC4)nc3n3c2sc2ccccc23)cn1" numeric_readout=0.1
compound="CC(C)n1c(=O)n(C)c2cnc3cc(F)c(-c4ccc(OCCCN5CCCCC5)nc4)cc3c21 + Cc1[nH]c2ccc(F)cc2c1-c1nc2c3cccnc3c3ncccc3c2[nH]1" numeric_readout=73.6

====

# Tested on: 282377-053-R-J1-PDC complex spheroids, viability
# measurement.protocol: Anticancer human tumor 282377-053-R-J1-PDC cell line growth inhibition [GQUAD];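 further: spheroids exposed to compounds for 7 days before readout; percent of vehicle DMSO control viability with 100% = untreated-like growth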
# run.parameters: second compound 0.316 µM; first compound 3.16 µM; active compounds read low
# Text: DNA G-quadruplex Stabilizer Agents in Combinations in Complex Spheroids A high-throughput screen of multi-cell type tumor spheroids was designed to identify active combinations of DNA G-quadruplex stabilizer agents and targeted small molecules. […] Compounds. […] If the clinical Cmax for an agent had not been determined, the highest concentration tested was 10 microM. […]
Hi! Could you tag entries with viability, T/C below 90% as rule met, and those at or above as rule not met? Much appreciated.

compound="O=C(NO)c1cnc(N2CCN(S(=O)(=O)c3ccc4ccccc4c3)CC2)nc1 + CN(C)c1ccc(Nc2c3ccc(NC(=O)CCN4CCCC4)cc3nc3cc(NC(=O)CCN4CCCC4)ccc23)cc1" class_label="rule met"
compound="CC1COCCN1c1cc(C2(S(C)(=N)=O)CC2)nc(-c2ccnc3[nH]ccc23)n1 (stereo not given) + Cc1cnc(CNC(=O)c2c(=O)c3ccc(N4CCCN(C)CC4)nc3n3c2sc2ccccc23)cn1" class_label="rule met"
compound="C=CC(=O)N1CCN(c2nc(=O)n(-c3c(C)ccnc3C(C)C)c3nc(-c4c(O)cccc4F)c(F)cc23)C(C)C1 (stereo not given) + CN(C)c1ccc(Nc2c3ccc(NC(=O)CCN4CCCC4)cc3nc3cc(NC(=O)CCN4CCCC4)ccc23)cc1" class_label="rule not met"
compound="Cc1cccc(N(C)C(=O)C2C(O)CCN2c2nc(C)cc(C(F)(F)F)c2C#N)c1 (stereo not given) + Cc1cnc(CNC(=O)c2c(=O)c3ccc(N4CCCN(C)CC4)nc3n3c2sc2ccccc23)cn1" class_label="rule not met"
compound="C#Cc1c(F)ccc2cc(O)cc(-c3ncc4c(N5CC6CCC(C5)N6)nc(OCC56CCCN5CC(F)C6)nc4c3F)c12 (stereo not given) + Cc1[nH]c2ccc(F)cc2c1-c1nc2c3cccnc3c3ncccc3c2[nH]1" class_label="rule met"
compound="CCCS(=O)(=O)Nc1ccc(F)c(C(=O)c2c[nH]c3ncc(-c4ccc(Cl)cc4)cc23)c1F + Cc1[nH]c2ccc(F)cc2c1-c1nc2c3cccnc3c3ncccc3c2[nH]1" class_label="rule met"
compound="COc1cccc2c1C(=O)c1c(O)c3c(c(O)c1C2=O)CC(O)(C(=O)CO)CC3OC1CC(N)C(O)C(C)O1 (stereo not given) + Cc1[nH]c2ccc(F)cc2c1-c1nc2c3cccnc3c3ncccc3c2[nH]1" class_label="rule met"
compound="CC1COCCN1c1cc(C2(O)CC3CCC(C2)O3)c2cnn(-c3ccn[nH]3)c2n1 (stereo not given) + CN(C)c1ccc(Nc2c3ccc(NC(=O)CCN4CCCC4)cc3nc3cc(NC(=O)CCN4CCCC4)ccc23)cc1" class_label="rule met"
